test-protocol: folding stability dG unfold from chymotrypsin proteolysis; higher = more stable
reported-metric: folding stability dG unfold (kcal/mol)
Give just the numeric value; kcal/mol need not be written.

Which folding stability dG unfold is reported for this sequence? SAGLKVRIRTKDGREIEIEVSEEEAERLVKELEDAGFTVERVEVEELEPEEEKEELEEEERELKEELEESAG [r5_645_TrROS_Hall] 2.91

Suppose we examine the sequence SAGGSAGGSASVKVEEKPTEIVITTKSPSPVITVETIPLSPDGVPVGKKTTTISLPPKDIILSAGGSAGGSA [r18_300_JUSTAS] ; what folding stability dG unfold value has been reported? -0.778

If you can, please state the reported folding stability dG unfold value of SAGGSAIKIIPNGDGIYIKIWFNNQPHPIPIESPEDAEEQVKSILDKFQKRNGMDIPEDMKVEIYPSAGGSA [r15_496_TrROS] . 1.12

Which folding stability dG unfold value is on record for SAGGSAGGSAGMKIEIELDENGELRIRITVYNKETKEEVEEFEFTLPLEELEEELRKLLESAGGSAGGSAGG [r11_376_TrROS_Hall] ? 3.62

----------
test-protocol: folding stability dG unfold from trypsin proteolysis; higher = more stable
reported-metric: folding stability dG unfold (kcal/mol)
The reply should contain only the number, in kcal/mol.

Could you share which folding stability dG unfold value was measured for SAGGSAGGSAGGMTAKEIAEKLGLPPGAKVVKIEYDKETNTFYIVIEVDGELKTYRIDVSAGGSAGGSAGGS [r10_17_TrROS_Hall] ? 4.2

Which folding stability dG unfold value belongs to SMVVERDPDGVLRVYASPEEAERIVAELKAAGLDARVEAFDPETGVWVIPVRPVPPAGLEPTPENQALNRVS [r1_78_JUSTAS] ? 0.502

Which measured folding stability dG unfold value corresponds to SAGSYSVTADVTVHPDGTVDVTLTITTNGEDGTTETSTVLPLTLDLPPGTAVTVTVDPNNGTVTVTVEASAG [r5_179_JUSTAS] ? 3.01

Need folding stability dG unfold, item SAGGSPERSAEELAEELAERIRELLREEAASFELPLHVHIVVPDPEGRRREFDVEVHVRVEVPEDARSAGGS [r16_550_TrMRF] 0.898

Tell me the measured folding stability dG unfold of SAGGSAGGSAGRRLVLEFDDESLAVPAAEFLERVLGLELVSIERVPDGERERVLVVLDFPSAGGSAGGSAGG [r11_232_TrMRF] , please. 1.78

For the sequence shown here, MKETVTVDITVVVEDENGKKHLVRVKVTVEKLPDGTYRVTIEVENLETGKTETIEIEVKGAEFKPGDVIEIS [r1_14_TrROS_Hall] , give the reported folding stability dG unfold. 3.21

Record request: folding stability dG unfold value, item SAGGSEGMTVTELVKPPDSDEVLYVATDSAGNTFTLPGSLVKEALENGKTVEAPRPDGTAATLVLRSAGGSA [r2_301_JUSTAS] 2.25

----------
test-protocol: folding stability dG unfold from chymotrypsin proteolysis; higher = more stable
// false (0) strictly below 2 kcal/mol in folding stability dG unfold; true (1) otherwise

Identify whether the reported folding stability dG unfold of the following sequence is 2 kcal/mol or greater: SASISVASPEEAEKIAKELKEKYGAKSVKIEPLPEPLVKVTIEFEVPLENGKTATRKIVLLFSSDGKEESAG [r14_420_TrMRF] true (1)

# check: folding stability dG unfold of SKIRIEWPDETQEIKIPKDASVAIDPGNGHIAIHGPDGEALGFPLGPNWKIEPDDDEIEITIPPPKPEDPSA [r9_653_TrROS] is greater than or equal to 2 kcal/mol false (0)

Has SSPEEMAEKLAKELNFDKIEIKTEKLDLPSGPSEATVATAKLYNPATGKEYVVKILKFPDGSYEIVIEKKSA [r9_724_JUSTAS] a recorded folding stability dG unfold greater than or equal to 2 kcal/mol? true (1)

Check if folding stability dG unfold >= 2 kcal/mol (inclusive). Item: SAGGSMALVEIERPGGEGALRTVDTSNPAAVKAFVDAVPEDEPVRVYTDDPAVVELFKEAGFDEVLLESAGG [r13_476_JUSTAS] false (0)

API: above_or_equal(metric=folding stability dG unfold, cutoff=2 kcal/mol) for item SSSSSRTIEYPDSTLELTFTTTPLPDDTYRVPVQVTRYDPVTKTWSTRNLTVPFPPSDPEAAAEAVIARLLS [r1_171_JUSTAS] false (0)

Item SAGGSAGGSAMPTYDNPDSLSIEEVKEKVAKEAKEKYPGKSNITVPVKFSDGTEYTVTIKIESAGGSAGGSA [r18_449_JUSTAS] with folding stability dG unfold of 2 kcal/mol or above? false (0)

Please check the record SAGGSAGGSAKKVVTVPEDATLEEIEELLKSGEKVTVVIHNKETGKTETLEFDSLEELKAASAGGSAGGSAG [r3_362_TrROS_Hall] and state if its folding stability dG unfold is at or above 2 kcal/mol. false (0)

Reported folding stability dG unfold reaches at least 2 kcal/mol for SAGGSAGGSPPPVPLSTLAVEPDPATGGKFTVLLAYPDGSTRELTSEEEAAALPNFDLERRLASAGGSAGGS [r20_192_JUSTAS] ? false (0)

Determine whether this sequence has folding stability dG unfold no lower than 2 kcal/mol: SAGTLTLELEVEVDGVLVRVRVEVRPGEEVEVRVEVEVRELPPEPEVEEEEKVELSEEDLERLRRLAEESAG [r5_958_TrROS_Hall] true (1)

API: above_or_equal(metric=folding stability dG unfold, cutoff=2 kcal/mol) for item SAGGSAGGSAGDPNYVQVTIRMPMERRNPEDGKWERNPMEITIPFKSKDQADKIAEEIGISAGGSAGGSAGG [r11_984_TrROS] false (0)

Dear colleague, could you confirm whether SAGGSAGGKKNNKPKPILVKIEIINKNGKKKVFTKEFKSLEEAKKFIEKALPKGYSAKIEIIPGSAGGSAGG [r6_289_TrMRF] has folding stability dG unfold at or above 2 kcal/mol? true (1)

Tell me whether folding stability dG unfold is at least 2 kcal/mol here: SSMVVINFPDTKKATPETLRKEIEPVAAPGKPVLVTVYPPTGVVLKTATVEPDKVEEVDPSHPYIVEIVASA [r9_264_JUSTAS] false (0)

Threshold query (folding stability dG unfold >= 2 kcal/mol) on SAGMISSVSSEPSTNTTTATIPETGKTITYNPETGTLTVTPPTGNPSVIPVETPEEAERAMEEVIAELSSAG [r5_467_JUSTAS] false (0)

Is folding stability dG unfold for SAGGSAGGSYTVETSPVPPGGLLKTYTSPDGVVTTTLYSPDGTVGETTTTPVPPVVPPDPAAAASAGGSAGG [r6_239_JUSTAS] at or above 2 kcal/mol? false (0)

Ref: the supplement of paper PMC12764529
